- study.system: HLA-A*02:01
- assay.explanation: IEDB peptide-MHC binding, purified MHC/direct/fluorescence; filed as Kd, often an IC50 or EC50 that approximates it; bounds were set here for any values at or beyond the usual limits of such assays
- test.settings: source organism: Listeria monocytogenes serotype 4b str. H7858
property: Kd

Exercise: Return Kd for the following sequence: FRDEAGAIL
Solution: ≥ 20 µM

###

# pKd annotations
- study.system: HLA-B*46:01
- assay.explanation: IEDB peptide-MHC binding, purified MHC/direct/fluorescence; filed as Kd, often an IC50 or EC50 that approximates it; bounds were set here for any values at or beyond the usual limits of such assays
- test.settings: source organism: West Nile virus
pKd: −log10 of the molar value.

LLVAPAYSF; ≤ 4.70

Proceeding to the next sequence to report its pKd.
Exercise: Answer briefly: pKd recorded on HLA-B*46:01 for LYAVTTAVL
Solution: ≤ 4.70

###

- study.system: HLA-B*07:02
- assay.explanation: IEDB peptide-MHC binding, purified MHC/direct/fluorescence; filed as Kd, often an IC50 or EC50 that approximates it; bounds were set here for any values at or beyond the usual limits of such assays
- test.settings: source organism: Influenza A virus (A/swine/Hong Kong/5190/99(H3N2))
pKd: −log10 of the molar value.
property: pKd

Exercise: Return pKd for the following sequence: YMFESKSMK
Solution: ≤ 4.70

###

- study.system: HLA-A*31:01
- assay.explanation: IEDB peptide-MHC binding, purified MHC/direct/fluorescence; filed as Kd, often an IC50 or EC50 that approximates it; bounds were set here for any values at or beyond the usual limits of such assays
- test.settings: source organism: Corynebacterium diphtheriae
pKd: −log10 of the molar value.
property: pKd

Exercise: Return pKd for the following sequence: VERRLVKVL
Solution: ≤ 4.70

###

- study.system: HLA-B*15:09
- assay.explanation: IEDB peptide-MHC binding, purified MHC/competitive/fluorescence; filed as Kd, often an IC50 or EC50 that approximates it; bounds were set here for any values at or beyond the usual limits of such assays
- test.settings: source organism: Human immunodeficiency virus 1
property: Kd

Exercise: Answer briefly: Kd recorded on HLA-B*15:09 for GSEEIKSLF
Solution: ≥ 20 µM

###

- study.system: HLA-B*07:02
- assay.explanation: IEDB peptide-MHC binding, purified MHC/direct/fluorescence; filed as Kd, often an IC50 or EC50 that approximates it; bounds were set here for any values at or beyond the usual limits of such assays
- test.settings: source organism: Brucella abortus
property: Kd

Exercise: Return Kd for the following sequence: SRIGAWASK
Solution: ≥ 20 µM

###

- study.system: HLA-B*27:03
- assay.explanation: IEDB peptide-MHC binding, purified MHC/direct/fluorescence; filed as Kd, often an IC50 or EC50 that approximates it; bounds were set here for any values at or beyond the usual limits of such assays
- test.settings: source organism: Giardia lamblia ATCC 50803
pKd: −log10 of the molar value.
property: pKd

PPPPLQHPI; ≤ 4.70

Proceeding to the next sequence to report its pKd.
Exercise: Return pKd for the following sequence: LLIQGLKTV
Solution: ≤ 4.70

###

# Kd annotations
- study.system: HLA-A*33:01
- assay.explanation: IEDB peptide-MHC binding, purified MHC/competitive/radioactivity; filed as Kd, often an IC50 or EC50 that approximates it; bounds were set here for any values at or beyond the usual limits of such assays
- test.settings: source organism: Lymphocytic choriomeningitis virus (strain Armstrong)

NYSKFWYLEH; 300 nM

Proceeding to the next sequence to report its Kd.
Exercise: Return Kd for the following sequence: NSESLSLISH
Solution: ≥ 31800 nM

###

- study.system: HLA-A*02:16
- assay.explanation: IEDB peptide-MHC binding, purified MHC/direct/fluorescence; filed as Kd, often an IC50 or EC50 that approximates it; bounds were set here for any values at or beyond the usual limits of such assays
- test.settings: source organism: Listeria monocytogenes serotype 4b str. H7858
property: Kd

Exercise: Return Kd for the following sequence: FRDEAGAIL
Solution: ≥ 20 µM

###

- study.system: HLA-A*02:03
- assay.explanation: IEDB peptide-MHC binding, purified MHC/competitive/radioactivity; filed as Kd, often an IC50 or EC50 that approximates it; bounds were set here for any values at or beyond the usual limits of such assays
- test.settings: source organism: Vaccinia virus WR
pKd: −log10 of the molar value.
yes means recorded pKd is 7 or above; no means it is below 7.

TIDKSSPLYI; yes
EIITGNKVKT; no
MQKFTILEYL; no
NVSGVPHSV; yes
PTDMLKLFT; no
YVPSAEDNYL; no

Exercise: Please check the record ALEQYGIENT and state if its pKd is at or above 7.
Solution: no

Exercise: Please check the record SAVFKDSFL and state if its pKd is at or above 7.
Solution: no

Exercise: Please check the record SICLDYIIV and state if its pKd is at or above 7.
Solution: no

###

# pKd annotations
- study.system: HLA-A*29:02
- assay.explanation: IEDB peptide-MHC binding, purified MHC/competitive/radioactivity; filed as Kd, often an IC50 or EC50 that approximates it; bounds were set here for any values at or beyond the usual limits of such assays
- test.settings: source organism: Mammarenavirus lassaense
pKd: −log10 of the molar value.

PEDPVEVALY; ≤ 4.36
VGRAWENTI; ≤ 4.10

Proceeding to the next sequence to report its pKd.
Exercise: Return pKd for the following sequence: YEEFCNAVY
Solution: 6.37

###

- study.system: HLA-B*40:01
- assay.explanation: IEDB peptide-MHC binding, purified MHC/direct/fluorescence; filed as Kd, often an IC50 or EC50 that approximates it; bounds were set here for any values at or beyond the usual limits of such assays
- test.settings: source organism: Rickettsia canadensis
pKd: −log10 of the molar value.
property: pKd

Exercise: Return pKd for the following sequence: SSEADCFTY
Solution: ≤ 4.70

###

- study.system: HLA-C*03:03
- assay.explanation: IEDB peptide-MHC binding, purified MHC/direct/fluorescence; filed as Kd, often an IC50 or EC50 that approximates it; bounds were set here for any values at or beyond the usual limits of such assays
- test.settings: source organism: Burkholderia cenocepacia HI2424
property: Kd

Exercise: Return Kd for the following sequence: FAKPAGTPM
Solution: ≤ 1 nM

###

- study.system: HLA-A*11:01
- assay.explanation: IEDB peptide-MHC binding, purified MHC/competitive/fluorescence; bounds were set here for any values at or beyond the usual limits of such assays
- test.settings: source organism: Vaccinia virus
pIC50: −log10 of the molar value.
property: pIC50

Example cases with answers are listed next.
WAMEKSSKY; ≤ 3.88
EKSSKYYIK; ≤ 4.10

Proceeding to the next sequence to report its pIC50.
Exercise: Return pIC50 for the following sequence: LFGIKCIKK
Solution: 5.09

###

- study.system: HLA-A*02:19
- assay.explanation: IEDB peptide-MHC binding, purified MHC/competitive/fluorescence; filed as Kd, often an IC50 or EC50 that approximates it; bounds were set here for any values at or beyond the usual limits of such assays
- test.settings: source organism: Entamoeba dispar SAW760
# Kd annotations

FELLHFISS; ≥ 20 µM

Exercise: Return Kd for the following sequence: LVGNTLTTC
Solution: ≥ 20 µM

###

# Kd annotations
- study.system: HLA-A*26:01
- assay.explanation: IEDB peptide-MHC binding, purified MHC/competitive/fluorescence; filed as Kd, often an IC50 or EC50 that approximates it; bounds were set here for any values at or beyond the usual limits of such assays
- test.settings: source organism: Entamoeba dispar SAW760

LVGNTLTTC; ≥ 20 µM

Proceeding to the next sequence to report its Kd.
Exercise: Return Kd for the following sequence: FELLHFISS
Solution: ≥ 20 µM

###

- study.system: HLA-B*15:01
- assay.explanation: IEDB peptide-MHC binding, purified MHC/competitive/fluorescence; bounds were set here for any values at or beyond the usual limits of such assays
- test.settings: source organism: Vaccinia virus
property: IC50 (µM)
Please state the figure in µM; there is no need to write the unit.

Exercise: Return IC50 for the following sequence: WAMEKSSKY
Solution: 9.18

###

- study.system: HLA-B*40:01
- assay.explanation: IEDB peptide-MHC binding, purified MHC/direct/fluorescence; filed as Kd, often an IC50 or EC50 that approximates it; bounds were set here for any values at or beyond the usual limits of such assays
- test.settings: source organism: Francisella tularensis subsp. holarctica LVS
property: pKd
Formally, pKd is defined as -log10 of the concentration c, with c in mol/L.

Exercise: Answer briefly: pKd recorded on HLA-B*40:01 for REMGIVDLL
Solution: 8.85

###

- study.system: HLA-B*46:01
- assay.explanation: IEDB peptide-MHC binding, purified MHC/direct/fluorescence; filed as Kd, often an IC50 or EC50 that approximates it; bounds were set here for any values at or beyond the usual limits of such assays
- test.settings: source organism: Corynebacterium diphtheriae
pKd: −log10 of the molar value.
property: pKd

Exercise: Return pKd for the following sequence: VERRLVKVL
Solution: ≤ 4.70

These data points were gathered from the Immune Epitope Database (IEDB).
